Assay: Solubility
Type: physicochemical
Settings: benzene
readout.name: solubility in benzene

{"columns": ["compound", "readout.name", "readout.value"],
 "data": [
  ["Cc1ccc(-c2cnn(C3CCOC3=O)c(=O)n2)cc1 (centres unmarked)", "solubility in benzene", "poorly soluble"],
  ["COc1ccc(-c2cnn(CC(=O)C(C)C)c(=O)n2)cc1", "solubility in benzene", "poorly soluble"],
  ["COc1ccc(-c2cnn(C3CCOC3=O)c(=O)n2)cc1 (centres unmarked)", "solubility in benzene", "poorly soluble"]
]}

###

Experiment: Solubility
Format: physicochemical
Conditions: alcohols, in the hot

{"columns": ["molecule", "solubility in alcohols in the hot"],
 "data": [
  ["COc1ccc(C2C=NN(CCCN3CCN(c4cccc(Cl)c4)CC3)C(=O)N2)cc1 (centres unmarked)", "Soluble"],
  ["Cc1ccc(-c2cnn(CCCCN3CCN(c4cccc(Cl)c4)CC3)c(=O)n2)cc1", "Soluble"],
  ["Cc1ccc(C2C=NN(C(c3ccccc3)C(O)c3ccccc3)C(=O)N2)cc1 (centres unmarked)", "Soluble"]
]}
